measured_target: T1, RANKL expressed on the surface of 293 cells (UniProt O14788 1-317, limits assumed)
T1 construct: whole, on cells; also called RANKL-transfected 293 cells; cells expressing RANKL
T1 sequence (looked up): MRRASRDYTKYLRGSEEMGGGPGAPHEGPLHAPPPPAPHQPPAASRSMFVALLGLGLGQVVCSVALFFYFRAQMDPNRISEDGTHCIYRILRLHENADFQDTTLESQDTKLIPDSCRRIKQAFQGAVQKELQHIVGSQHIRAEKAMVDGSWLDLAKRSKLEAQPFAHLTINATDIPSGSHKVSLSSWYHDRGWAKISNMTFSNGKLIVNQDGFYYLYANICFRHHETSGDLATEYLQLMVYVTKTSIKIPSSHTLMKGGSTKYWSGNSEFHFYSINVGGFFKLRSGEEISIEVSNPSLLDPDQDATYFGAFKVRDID
assay_name: flow cytometry (MFI) on RANKL-transfected 293 cells
measurement_name: EC50 (µg/mL)
Give a bare numeral; the unit µg/mL is implied.

>>> test_value("clone 270 rabbit anti-RANKL antibody (antibody, V domains shown) VH: QSVEESGGRLVTPGTPLTLTCTVSGFSLSSDVMSWVRQAPGKGLDWIGYIWSGGRPYYANWAKGRFTISKSSSTTVDLKITSPTTEDTAAYFCARGFGSSGLNIWGPGTLVTVSL VL: DMTQTPASVEVAVGGTVTIKCQASQNIGYNLAWYQQKPGQPPKLLIYGASTLASGVPSRFKGSGSGTQFTLTISGVQCDDAATYYCQQGYSVSNIDNAFGGGTEVVVK")
0.0751
>>> test_value("clone 327 rabbit anti-RANKL antibody (antibody, V domains shown) VH: QSLEESGGRLVTPGTPLTLTCTVSGFSLSKYEINWVRQAPGKGLEWIGYIDVGSGTWYASWAKGRFTISKTSTTVALRITSPTTEDTATYFCSRQYNPMDLWGPGTLVTVSS VL: DMTQTPASVEAAVGGTVTIKCQASQNIGSNLAWYQQKPGQRPKLLIYSASTLASGVPSRFKGSGSGTQFTLTISGVQCDDAATYYCQQGYSVGNVNNAFGGGTEVVVK")
0.0871

Lab note: next binder to report on.
### Prompt Quick check: EC50 of clone 383 rabbit anti-RANKL antibody (antibody, V domains shown) VH: QSLEESGGDLVKPGASLTLTCTASGFSFSRYVCWVRQAPGKGLEWIGCIAAGSSGYTYYASWAKGRLTISKTSSTTLTLQMTSLTVADTATYFCARSGDSYVGYFNLWGPGTLVTVSS VL: IVMTQTPASVEAAVGGTVTIKCQASQNIYNYLAWYQQQPGQPPKLLIYSASNLASGVSSRFKGSGSGTEFTLTISDLECGDAATYYCQSYYDSSRISYGSAFGGGTEVVVK ?
### Response 0.15
